- Test system: HCC-366
- assayNotes: relative viability (nuclei count vs DMSO), 5 days (fraction); higher = more cells survive
- cond: first compound 0.002 µM
// values below are reported relative viability
Reply with just the number.

Examples with answers:
molecule | studyTarget | relative viability
CCNC(=O)c1noc(-c2cc(C(C)C)c(O)cc2O)c1-c1ccc(CN2CCOCC2)cc1 [Luminespib] + Cc1nc(Nc2ncc(C(=O)Nc3c(C)cccc3Cl)s2)cc(N2CCN(CCO)CC2)n1 [Dasatinib] (partner 0.075 µM) | HCC-366 | 0.615
CCNC(=O)c1noc(-c2cc(C(C)C)c(O)cc2O)c1-c1ccc(CN2CCOCC2)cc1 [Luminespib] + CC(=O)Nc1cccc(-n2c(=O)n(C3CC3)c(=O)c3c(Nc4ccc(I)cc4F)n(C)c(=O)c(C)c32)c1 [Trametinib] (partner 0.02 µM) | HCC-366 | 0.354
CCNC(=O)c1noc(-c2cc(C(C)C)c(O)cc2O)c1-c1ccc(CN2CCOCC2)cc1 [Luminespib] + CC(=O)c1c(C)c2cnc(Nc3ccc(N4CCNCC4)cn3)nc2n(C2CCCC2)c1=O [Palbociclib] (partner 0.5 µM) | HCC-366 | 0.363

Now turn to the next molecule.
Request: GET relative viability | system: HCC-366 | item: CCNC(=O)c1noc(-c2cc(C(C)C)c(O)cc2O)c1-c1ccc(CN2CCOCC2)cc1 [Luminespib] + N=C(N)NC(=N)NCCc1ccccc1 [Phenformin] (partner 250 µM)
Result: 0.686
